- Experimental Target: Human Notch3-Gal4-VP16 (human)
- Method Notes: cell-based or functional assay
Assay Metric: IC50, Delta 1 co-culture Notch3 reporter gene assay
Param answer (str): number followed by unit.

For orientation, consider the following solved cases.
{"Binder": "12981 (antibody, human IgG1, kappa, V domains shown, also called MOR 12981) VH: QVQLVQSGAEVKKPGSSVKVSCKASGGTFRTYAMHWVRQAPGQGLEWMGGIIPIFGIANYAQKFQGRVTITADESTSTAYMELSSLRSEDTAVYYCARDDYSTYAFAYWGQGTLVTVSS VL: DIQMTQSPSSLSASVGDRVTITCRASQSIASYLAWYQQKPGKAPKLLIYDASNLQSGVPSRFSGSGSGTDFTLTISSLQPEDFATYYCQQAYKTPYTFGQGTKVEIKR", "Test Value": "22 nM"}
{"Binder": "20337 (antibody, human IgG1, kappa, V domains shown) VH: QVQLVESGGGLVKPGGSLRLSCAASGFTFSTYVMHWVRQAPGKGLEWVGRIRANAYGGAADYAAPVKGRFTISRDDSKNTLYLQMNSLKTEDTAVYYCARAEARYRDVWGQGTLVTVSS VL: DIQMTQSPSSLSASVGDRVTITCRASQSISSHLNWYQQKPGKAPKLLIYAASNLQSGVPSRFSGSGSGTDFTLTISSLQPEDFATYYCQQDYHTPFTFGQGTKVEIKR", "Test Value": "6.4 nM"}

For the next question, use this binder.
According to the records, this binder 20351 (antibody, human IgG1, kappa, V domains shown) VH: QVQLVQSGAEVKKPGSSVKVSCKASGGTFSSYTISWVRQAPGQGLEWMGWIKPRYGAAMYAQKFQGRVTITADESTSTAYMELSSLRSEDTAVYYCARGSFWFGYWGQGTLVTVSS VL: DIQMTQSPSSLSASVGDRVTITCRASQGINNYLNWYQQKPGKAPKLLIYDASKLQSGVPSRFSGSGSGTDFTLTISSLQPEDFATYYCQQYLQYPMTFGQGTKVEIKR displays IC50, Delta 1 co-culture Notch3 reporter gene assay of 1.4 nM

Recorded values, source patent US20180009889A1.
